# Assay notes: Cytotoxicity against human HPC cells
# Assay type: cell-based
Record form. Attribute: CC50. Fill in for each entry.
Answers are plain numbers, in µM.

>>> meas_value("Cl.O=C1/C(=C/c2ccc([N+](=O)[O-])cc2)CN(C(=O)c2ccc(OCCN3CCCCC3)cc2)C/C1=C\\c1ccc([N+](=O)[O-])cc1")
3.9
>>> meas_value("CC[N+](C)(CC)CCOc1ccc(C(=O)N2C/C(=C\\c3ccc(C)cc3)C(=O)/C(=C/c3ccc(C)cc3)C2)cc1.[I-]")
29
>>> meas_value("CN(C)CCOc1ccc(C(=O)N2C/C(=C\\c3ccc(Cl)cc3)C(=O)/C(=C/c3ccc(Cl)cc3)C2)cc1.Cl")
11

--- query ---
Param item = Cc1ccc(/C=C2\CN(C(=O)c3ccc(OCCN(C)C)cc3)C/C(=C\c3ccc(C)cc3)C2=O)cc1.Cl ; retrieve measured CC50.
7.2

* * *

# Assay notes: Cytotoxicity against human HGF cells
# Format: cell-based
Metric name: CC50

Sample records with CC50:
>>> meas_value("CC[N+](C)(CC)CCOc1ccc(C(=O)N2C/C(=C\\c3ccc(Cl)cc3)C(=O)/C(=C/c3ccc(Cl)cc3)C2)cc1.[I-]")
"> 400 µM"
>>> meas_value("Cl.O=C1/C(=C/c2ccc(Cl)cc2)CN(C(=O)c2ccc(OCCN3CCCCC3)cc2)C/C1=C\\c1ccc(Cl)cc1")
"> 400 µM"
>>> meas_value("CC[N+](C)(CC)CCOc1ccc(C(=O)N2C/C(=C\\c3ccc([N+](=O)[O-])cc3)C(=O)/C(=C/c3ccc([N+](=O)[O-])cc3)C2)cc1.[I-]")
"93 µM"
>>> meas_value("CN(C)CCOc1ccc(C(=O)N2C/C(=C\\c3ccccc3)C(=O)/C(=C/c3ccccc3)C2)cc1.Cl")
"3.6 µM"
>>> meas_value("CCN(CC)CCOc1ccc(C(=O)N2C/C(=C\\c3ccccc3)C(=O)/C(=C/c3ccccc3)C2)cc1.Cl")
"4.2 µM"

Please report CC50 for every entry that follows.
1. CCN(CC)CCOc1ccc(C(=O)N2C/C(=C\c3ccc(Cl)cc3)C(=O)/C(=C/c3ccc(Cl)cc3)C2)cc1.Cl
2. N[C@@H](Cc1ccc(N(CCCl)CCCl)cc1)C(=O)O
3. Cl.O=C1/C(=C/c2ccc([N+](=O)[O-])cc2)CN(C(=O)c2ccc(OCCN3CCCCC3)cc2)C/C1=C\c1ccc([N+](=O)[O-])cc1
4. Cc1ccc(/C=C2\CN(C(=O)c3ccc(OCCN4CCCCC4)cc3)C/C(=C\c3ccc(C)cc3)C2=O)cc1.Cl
5. CCN(CC)CCOc1ccc(C(=O)N2C/C(=C\c3ccc([N+](=O)[O-])cc3)C(=O)/C(=C/c3ccc([N+](=O)[O-])cc3)C2)cc1.Cl
6. Cl.O=C1/C(=C/c2ccc([N+](=O)[O-])cc2)CN(C(=O)c2ccc(OCCN3CCOCC3)cc2)C/C1=C\c1ccc([N+](=O)[O-])cc1
7. CN(C)CCOc1ccc(C(=O)N2C/C(=C\c3ccc(Cl)cc3)C(=O)/C(=C/c3ccc(Cl)cc3)C2)cc1.Cl

230 µM
> 200 µM
8 µM
6 µM
5 µM
12 µM
23 µM

* * *

Record form. Attribute: Selectivity Index. Fill in for each entry.
# Tested on: HSC-4
# Assay notes: Selectivity index, ratio of CC50 for human normal cells to CC50 for human HSC4 cells
# Format: functional

Sample records with Selectivity Index:
>>> meas_value("Cl.O=C1/C(=C/c2ccccc2)CN(C(=O)c2ccc(OCCN3CCCCC3)cc2)C/C1=C\\c1ccccc1")
3.2
>>> meas_value("Cc1ccc(/C=C2\\CN(C(=O)c3ccc(OCCN(C)C)cc3)C/C(=C\\c3ccc(C)cc3)C2=O)cc1.Cl")
3

Param item = Cl.O=C1/C(=C/c2ccc(Cl)cc2)CN(C(=O)c2ccc(OCCN3CCCCC3)cc2)C/C1=C\c1ccc(Cl)cc1 ; retrieve measured Selectivity Index.
>7.9
